meta.source: ChEMBL document CHEMBL1149655

ASSAYED SYSTEM: Glucocorticoid receptor (Homo sapiens, UniProt P04150)
Sequence (P04150 whole entry): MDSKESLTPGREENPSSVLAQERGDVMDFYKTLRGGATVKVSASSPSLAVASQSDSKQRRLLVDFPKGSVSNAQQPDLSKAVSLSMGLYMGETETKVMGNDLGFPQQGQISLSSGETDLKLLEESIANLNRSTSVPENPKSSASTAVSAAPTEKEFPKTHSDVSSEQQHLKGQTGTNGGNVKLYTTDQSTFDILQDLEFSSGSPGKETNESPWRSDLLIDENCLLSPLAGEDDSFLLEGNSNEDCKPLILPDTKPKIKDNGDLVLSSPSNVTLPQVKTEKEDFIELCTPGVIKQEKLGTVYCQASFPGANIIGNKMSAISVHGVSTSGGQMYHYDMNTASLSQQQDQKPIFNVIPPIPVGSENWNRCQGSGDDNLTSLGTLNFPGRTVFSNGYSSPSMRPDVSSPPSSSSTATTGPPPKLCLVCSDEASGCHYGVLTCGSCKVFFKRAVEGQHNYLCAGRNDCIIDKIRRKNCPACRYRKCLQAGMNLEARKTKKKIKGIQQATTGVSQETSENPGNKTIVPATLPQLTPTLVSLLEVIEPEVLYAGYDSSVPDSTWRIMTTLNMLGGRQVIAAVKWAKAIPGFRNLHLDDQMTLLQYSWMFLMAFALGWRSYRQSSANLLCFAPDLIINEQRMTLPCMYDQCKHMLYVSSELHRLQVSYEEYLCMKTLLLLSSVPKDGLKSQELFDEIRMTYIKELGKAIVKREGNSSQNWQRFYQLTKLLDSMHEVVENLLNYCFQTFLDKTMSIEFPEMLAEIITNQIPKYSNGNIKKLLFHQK
ASSAY DETAILS: Agonist activity at glucocorticoid receptor in human A549 cells by MMTV transactivation assay
pEC50: −log10 of the molar value.
MEASURE NAME: pEC50

These solved cases illustrate the format of a correct answer.
CCC1(CC(O)(CNC(=O)c2cnn(-c3ccccc3)c2N)C(F)(F)F)CCCc2ccccc21 (stereo unspecified); 8.25
Nc1c(C(=O)NCC(O)(CC2(C3CCCC3)CCCc3ccccc32)C(F)(F)F)cnn1-c1ccc(F)cc1F (stereo in doubt; 23D1E2); 6.82

I = CC1(CC(O)(CNC(=O)c2cnn(-c3ccccc3)c2N)C(F)(F)F)CCCc2ccccc21 (stereo in doubt; 19D1E1)
II = Nc1c(C(=O)NCC(O)(CC2(c3cc(F)ccc3Cl)CCC2)C(F)(F)F)cnn1-c1ccccc1 (stereo in doubt; 24E2)
III = CCC1(CC(O)(CNC(=O)c2cnn(-c3ccc(F)cc3)c2N)C(F)(F)F)CCCc2ccccc21 (stereo in doubt; 21D1E1)
Query string: List items by pEC50 in falling order. The reply should contain the labels ordered as requested.
Result string: III, II, I
